Tested on: Parascaris equorum
Assay Info: Residual NADH:UBQ:DCIP reductase activity in parascaris mitochondrial particles
Parameters: concentration or dose not given beside the values
TRUE if residual activity is below 80%. FALSE if not; exact matches included in FALSE.

Request: A record lists `Cn1c(Cl)c(/C=C/c2cccs2)[n+]2c1SCC2` . Is its residual activity below 80%?
Result: FALSE

Next:
Request: Is it true that residual activity reported for `Cn1c(-c2ccccc2)c(/C=C/c2cccs2)[n+]2c1SCC2` is less than 80%?
Result: FALSE

Request: hey, is residual activity for `Cc1cn2cc(-c3ccsc3)nc2s1` lower than 80% or not?
Result: TRUE

Request: Lab note: residual activity threshold 80%. Does this compound come in strictly under it? `Cn1c(Cl)c(/C=C\c2cccs2)[n+]2c1SCC2`
Result: FALSE

Request: Answer whether the compound `Cc1csc2nc(-c3cccs3)cn12` has residual activity strictly less than 80%
Result: TRUE

Request: residual activity strictly < 80% for this compound? `Clc1cn2cc(-c3cccs3)nc2s1`
Result: TRUE
